# Test system: SNB-19 CNS
# test.description: NCI-60 one-dose screen, 48 h
# condition.set: 10 µM unless noted
The panel holds about 83,000 compounds, 20% with a hit somewhere; the sample as a whole holds those more often. Calls of active or inactive are those of the source. How the source made its calls: active means growth percent below 10; inactive means the rest.
Classes used: 1.0 (active), 0.0 (inactive)

compound	system.under.test	group
COc1ccc2c(c1)c(-c1nnc(N)nc1-c1cn(C)c3ccccc13)cn2C	SNB-19 CNS	0.0
COc1ccc(/C=N/Nc2nc(Nc3ccccc3)nc(Nc3ccc(S(N)(=O)=O)cc3)n2)cc1	SNB-19 CNS	0.0
CC(=O)Nc1cccc(-n2cnc3cc(-c4ccc(O)cc4)ccc32)c1	SNB-19 CNS	0.0
Cc1ccc(-c2nnc3sc(C4=Cc5ccccc5OC=C4)nn23)cc1	SNB-19 CNS	0.0
O=C1c2c(c3c4ccc(Br)cc4oc3c3[nH]c4ccccc4c23)C(=O)N1CCO	SNB-19 CNS	0.0
CN1CCN(c2ccc(C(=O)Nc3cccc(-c4cn(-c5ccc(S(N)(=O)=O)cc5)nn4)c3)cc2C(F)(F)F)CC1	SNB-19 CNS	0.0
O=c1[nH]c(CCl)nc2c1cnn2-c1ccccc1	SNB-19 CNS	0.0
CS(=O)c1nccc(-c2c(-c3ccc(F)c(OCc4ccc(F)cc4)c3)nc3sccn23)n1 (stereo not given)	SNB-19 CNS	0.0
Oc1ccc(CSc2nnc(-c3cnccn3)o2)c2cccnc12	SNB-19 CNS	0.0
COc1cc(O)c2c(c1)/C=C/C[C@H](O)[C@H](O)C(=O)/C=C\C[C@H](C)OC2=O	SNB-19 CNS	0.0
COc1ccc(NC(=O)[C@H](C)N)cc1C(=O)Nc1cccc(-c2cc(=O)c3c(OC)c(OC)c(OC)cc3o2)c1	SNB-19 CNS	0.0
CC(C)(C)OC(=O)N1CCN(S(=O)(=O)/N=C2\NC(=O)NC2=C(Cl)Cl)CC1	SNB-19 CNS	0.0
COc1cc2c3c(n(CCCN4CCC[C@H]4C(N)=O)c(=O)c2cc1OC)-c1cc2c(cc1C3=O)OCO2	SNB-19 CNS	0.0
N#Cc1c(NC(=O)c2ccc(F)c(Cl)c2)sc2c1CCC(=O)C2	SNB-19 CNS	0.0
COc1ccc(-c2oc3cc(O)cc(O)c3c(=O)c2OC)cc1O	SNB-19 CNS	0.0
COc1ccc2c(c1)c(-c1nn3c(=O)cc(-c4ccccc4)nc3s1)cn2C	SNB-19 CNS	0.0
CS(=O)(=O)c1nccc(-c2c(-c3ccc(F)c(OCc4ccc(F)cc4)c3)nc3sccn23)n1	SNB-19 CNS	0.0
Cn1c2ccc(Br)cc2c2c3c(c4c5cc(F)ccc5oc4c21)C(=O)N(O)C3=O	SNB-19 CNS	0.0
COC(=O)c1c(C(=O)OC)c2n(CC(=O)Nc3cccc4cccnc34)c3ccccc3n2c1C(=O)c1ccc(C)cc1	SNB-19 CNS	0.0
O=C(/C=C/c1cn(-c2ccccc2)nc1-c1ccc(Cl)cc1)c1cc2ccccc2oc1=O	SNB-19 CNS	0.0
O=C(CN1CCN(c2cc(=O)n(-c3ccccc3)c3ccccc23)CC1)Nc1ccc([N+](=O)[O-])cc1	SNB-19 CNS	0.0
COc1ccc([C@H]2[C@H](O)C(=O)N2c2cc(OC)c(OC)c(OC)c2)cc1O	SNB-19 CNS	0.0
NC(=O)c1c(NC(=O)c2cccc(OC(F)(F)F)c2)sc2c1CCC(=O)C2	SNB-19 CNS	0.0
O=C1c2c(c3c4cccnc4[nH]c3c3ccc4ccccc4c23)C(=O)N1CCN1CCNCC1	SNB-19 CNS	0.0
CCN(CC)CCCC(C)NCC(=O)NC(c1ccc2c(c1)OCO2)c1cc(Cl)c2cccnc2c1O (stereo not given)	SNB-19 CNS	0.0
CC1(C)CC[C@]2(C(=O)O)CC[C@]3(C)C(=CCC4[C@@]5(C)C[C@@H](O)[C@@H]6OC(c7cccc([N+](=O)[O-])c7)OC[C@@]6(C)C5CC[C@]43C)C2C1 (stereo not given in full)	SNB-19 CNS	0.0
Cc1cc(-c2ccc3nc(N)sc3c2)nc2ccc3[nH]ncc3c12	SNB-19 CNS	0.0
CC1OC(O[C@@H]2C(O)C(CO)OC(O[C@H]3COC(O[C@H]4CC[C@]5(C)[C@H]6CC[C@]78OC[C@@]9(CC[C@](C)(C=O)C[C@H]97)[C@H](O)C[C@@]8(C)[C@]6(C)CC[C@H]5C4(C)C)[C@@H](OC4OC(CO)[C@@H](O)[C@@H](O)[C@@H]4O)[C@@H]3O)[C@H]2OC2OC[C@@H](O)[C@@H](O)[C@@H]2O)[C@@H](O)[C@@H](O)[C@H]1O (stereo not given in full)	SNB-19 CNS	1.0
C=CCn1c(SCC(=O)Nc2cccc(C(=O)/C=C/c3ccc(Cl)cc3)c2)nc2ccccc2c1=O	SNB-19 CNS	0.0
CN1C(=O)/C(=C/C=C/c2ccco2)SC1=S	SNB-19 CNS	0.0
COc1cc(-c2nc(SCc3ccc(C)cc3)[nH]c(=O)c2C#N)ccc1OCc1ccccc1	SNB-19 CNS	0.0
Cc1cc(F)cc(NS(=O)(=O)c2ccc(-c3cnc(C4CC4)o3)cc2)c1	SNB-19 CNS	0.0
CCN(CC)c1ccc2cc(C(=O)NCCOCCOCCOCCn3cc(CCC(=O)Nc4ccc(C(=O)c5ccc(NC(=O)OC(C)(C)C)cc5)cc4)nn3)c(=O)oc2c1	SNB-19 CNS	0.0
COc1cc(-c2noc(C[C@@H](NC(=O)OCc3ccccc3)C(C)C)n2)cc(OC)c1OC	SNB-19 CNS	0.0
COc1ccc([C@H]2[C@H](O)C(=O)N2c2cc(OC)c(OC)c(OC)c2)cc1Cl	SNB-19 CNS	0.0
